MEASUREMENT PROTOCOL: in vitro
TEST CONDITIONS: hela or vero cells
OUTCOME MEASURE: MNTC at 72 h (µg/mL)
Provide only the numeric value, understood in µg/mL.

**Query** For the molecule CC(=O)OC1/C=C/C(OC(C)=O)C(OC(C)=O)CC(=O)OC(C)C1 (stereo not shown) [Verbindung 6] , give its reported MNTC at 72 h.
**Result** 133
